# Tested system: UniProtKB Q15858
# Sequence (Q15858 whole entry): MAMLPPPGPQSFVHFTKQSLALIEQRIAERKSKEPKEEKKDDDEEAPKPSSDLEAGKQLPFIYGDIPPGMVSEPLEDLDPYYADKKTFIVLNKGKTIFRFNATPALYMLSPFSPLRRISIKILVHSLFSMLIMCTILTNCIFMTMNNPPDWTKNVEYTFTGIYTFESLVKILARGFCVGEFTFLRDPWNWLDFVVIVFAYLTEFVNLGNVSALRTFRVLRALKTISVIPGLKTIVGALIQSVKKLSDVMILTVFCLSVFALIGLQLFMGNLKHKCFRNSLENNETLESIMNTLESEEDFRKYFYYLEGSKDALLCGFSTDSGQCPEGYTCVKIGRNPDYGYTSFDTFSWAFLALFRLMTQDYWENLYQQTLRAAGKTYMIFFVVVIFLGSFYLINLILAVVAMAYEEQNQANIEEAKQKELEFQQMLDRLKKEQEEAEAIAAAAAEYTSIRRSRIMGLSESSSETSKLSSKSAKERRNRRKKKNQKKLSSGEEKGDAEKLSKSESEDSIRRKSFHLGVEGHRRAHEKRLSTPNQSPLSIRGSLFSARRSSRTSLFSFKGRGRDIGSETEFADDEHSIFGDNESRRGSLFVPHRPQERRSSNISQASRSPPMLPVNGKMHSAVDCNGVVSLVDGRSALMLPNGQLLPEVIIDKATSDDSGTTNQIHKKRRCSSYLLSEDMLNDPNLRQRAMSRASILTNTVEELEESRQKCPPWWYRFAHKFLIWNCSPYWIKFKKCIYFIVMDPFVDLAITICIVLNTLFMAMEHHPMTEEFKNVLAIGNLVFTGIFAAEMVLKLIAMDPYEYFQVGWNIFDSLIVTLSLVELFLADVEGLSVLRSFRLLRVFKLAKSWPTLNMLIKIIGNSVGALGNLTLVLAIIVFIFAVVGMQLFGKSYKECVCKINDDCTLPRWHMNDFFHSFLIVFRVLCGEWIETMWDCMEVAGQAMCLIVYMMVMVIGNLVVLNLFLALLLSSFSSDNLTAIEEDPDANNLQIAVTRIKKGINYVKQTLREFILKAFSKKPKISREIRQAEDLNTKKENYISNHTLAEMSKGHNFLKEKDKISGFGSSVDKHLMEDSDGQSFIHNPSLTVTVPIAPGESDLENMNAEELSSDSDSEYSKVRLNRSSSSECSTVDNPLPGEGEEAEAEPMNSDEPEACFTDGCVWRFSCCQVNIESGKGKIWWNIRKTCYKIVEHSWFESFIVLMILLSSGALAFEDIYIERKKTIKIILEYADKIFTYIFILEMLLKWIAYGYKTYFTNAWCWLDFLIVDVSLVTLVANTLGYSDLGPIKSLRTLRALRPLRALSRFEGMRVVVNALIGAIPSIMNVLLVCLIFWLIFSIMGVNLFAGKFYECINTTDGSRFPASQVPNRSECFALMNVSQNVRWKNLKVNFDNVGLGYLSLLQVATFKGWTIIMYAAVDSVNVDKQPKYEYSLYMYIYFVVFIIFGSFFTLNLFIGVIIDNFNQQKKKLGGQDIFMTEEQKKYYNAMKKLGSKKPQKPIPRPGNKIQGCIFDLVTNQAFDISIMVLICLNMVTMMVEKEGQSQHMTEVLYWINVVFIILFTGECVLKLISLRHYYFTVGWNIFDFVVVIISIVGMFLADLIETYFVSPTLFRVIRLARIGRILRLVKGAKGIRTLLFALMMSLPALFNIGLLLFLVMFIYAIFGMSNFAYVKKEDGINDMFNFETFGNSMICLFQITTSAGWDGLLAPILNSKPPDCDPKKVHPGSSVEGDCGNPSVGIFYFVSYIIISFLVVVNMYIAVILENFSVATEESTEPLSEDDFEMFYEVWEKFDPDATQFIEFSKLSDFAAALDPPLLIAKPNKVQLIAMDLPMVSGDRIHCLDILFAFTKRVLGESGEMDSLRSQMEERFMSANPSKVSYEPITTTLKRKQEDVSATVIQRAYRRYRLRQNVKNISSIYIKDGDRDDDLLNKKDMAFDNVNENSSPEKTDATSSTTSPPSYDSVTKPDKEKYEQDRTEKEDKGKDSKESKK
# Assay overview: Nav 1.7 IWQ in vitro assay (IonWorks Quattro population patch-clamp)
# Assay type: cell-based
# Condition summary: 293 cells stably transfected with Nav 1.7; second part of table; read-out: Nav1.7 IWQ IC50 IP
pIC50: −log10 of the molar value.

>  <Compound>
COc1nccc(NS(=O)(=O)c2ccc3c(-c4ccc(C(F)(F)F)cc4OC)nccc3c2)n1 [Example 313]

>  <pIC50>
< 5.00

$$$$
>  <Compound>
Cc1ccc2c(cnn2C)c1-c1nccc2cc(S(=O)(=O)Nc3ccncn3)ccc12 [Example 309]

>  <pIC50>
< 5.00

$$$$
>  <Compound>
O=S(=O)(Nc1ccncn1)c1ccc2c(OCc3ccc(-n4ccnc4)cc3)nccc2c1 [Example 301]

>  <pIC50>
< 5.00

$$$$
